Source of measurements: the supplement of paper PMC11451515

System: SEM cells
Experiment: cell viability relative to DMSO control; higher = less cytotoxic
Settings: HPLM + 10% dialyzed FBS; 48 h; 0.000781 µM
Mark 1 (yes) only when cell viability stays strictly below 90%. Values equal to the cut-off are 0 (no).

Below, 6 compounds whose answers are already recorded.
[
  {
    "compound": "CCCC[S+](=N)([O-])CCC(N)C(=O)O (stereo not given)",
    "class": "1 (yes)"
  },
  {
    "compound": "CCCCCN(C)CCC(O)(P(=O)([O-])O)P(=O)(O)O",
    "class": "1 (yes)"
  },
  {
    "compound": "Cc1cccc(-c2[nH]c(C(C)(C)C)nc2-c2ccc3nccnc3c2)n1",
    "class": "0 (no)"
  },
  {
    "compound": "Cc1nnc(C(=O)NC(C)(C)c2nc(C(=O)NCc3ccc(F)cc3)c(O)c(=O)n2C)o1",
    "class": "0 (no)"
  },
  {
    "compound": "Cc1ccc(C(=O)Nc2ccc([S+](=O)([O-])O)c3cc([S+](=O)([O-])O)cc([S+](=O)([O-])O)c23)cc1NC(=O)c1cccc(NC(=O)Nc2cccc(C(=O)Nc3cc(C(=O)Nc4ccc([S+](=O)([O-])O)c5cc([S+](=O)([O-])O)cc([S+](=O)([O-])O)c45)ccc3C)c2)c1",
    "class": "0 (no)"
  },
  {
    "compound": "OC1CCC(CC1)N2\\C=N/C3=C(C2=N)C(=C([N]3CC4=CC=CC=C4)C5=CC=CC=C5)C6=CC=CC=C6 (stereo not given)",
    "class": "0 (no)"
  }
]

(Q) Is the reported cell viability for COCCCC/C(=N\OCCN)c1ccc(C(F)(F)F)cc1 strictly below 90%?
(A) 1 (yes)

(Q) Take the compound COc1cccc(OC)c1-c1cc(C(=O)NC2(C(=O)O)C3CC4CC(C3)CC2C4)nn1-c1ccnc2cc(Cl)ccc12 (stereo not given) and say whether its cell viability is less than 90%.
(A) 0 (no)

(Q) Determine whether this compound shows cell viability lower than 90% (ties excluded): C#CCC(Cc1cnc2nc(N)nc(N)c2n1)c1ccc(C(=O)N[C@@H](CCC(=O)O)C(=O)O)cc1 (stereo not given in full)
(A) 0 (no)

(Q) Hello, I'm reviewing records and need to know if cell viability of O=C(CCCN1CCC(O)(c2ccc(Cl)cc2)CC1)c1ccc(F)cc1 is below 90%. Could you check?
(A) 1 (yes)

(Q) Identify whether the compound Cc1n[nH]c2ccc(-c3cncc(OC[C@@H](N)Cc4ccccc4)c3)cc12 records cell viability below 90%.
(A) 0 (no)

(Q) Say whether its cell viability is strictly beneath 90%. Entry: COc1cc2cc(c1Cl)N(C)C(=O)C[C@H](OC(=O)C(C)C)[C@]1(C)O[C@@H]1[C@H](C)[C@@H]1C[C@@](O)(NC(=O)O1)[C@H](OC)/C=C/C=C(\C)C2
(A) 1 (yes)

(Q) # TODO verify cell viability < 90% strictly for this compound: COc1cc(C[C@@H](CO)[C@H](CO)Cc2ccc(O)c(OC)c2)ccc1O
(A) 1 (yes)
